# Study System: Human pyruvate kinase R (PKR) (Homo sapiens, UniProt P30613)
# Construct: Human pyruvate kinase R (PKR), residues 14-574; 6x-His (N, cleaved yes); 8x-Arg (N, cleaved yes); SUMO (N, cleaved yes); host or cells: E. coli
# Sequence (P30613 14-574): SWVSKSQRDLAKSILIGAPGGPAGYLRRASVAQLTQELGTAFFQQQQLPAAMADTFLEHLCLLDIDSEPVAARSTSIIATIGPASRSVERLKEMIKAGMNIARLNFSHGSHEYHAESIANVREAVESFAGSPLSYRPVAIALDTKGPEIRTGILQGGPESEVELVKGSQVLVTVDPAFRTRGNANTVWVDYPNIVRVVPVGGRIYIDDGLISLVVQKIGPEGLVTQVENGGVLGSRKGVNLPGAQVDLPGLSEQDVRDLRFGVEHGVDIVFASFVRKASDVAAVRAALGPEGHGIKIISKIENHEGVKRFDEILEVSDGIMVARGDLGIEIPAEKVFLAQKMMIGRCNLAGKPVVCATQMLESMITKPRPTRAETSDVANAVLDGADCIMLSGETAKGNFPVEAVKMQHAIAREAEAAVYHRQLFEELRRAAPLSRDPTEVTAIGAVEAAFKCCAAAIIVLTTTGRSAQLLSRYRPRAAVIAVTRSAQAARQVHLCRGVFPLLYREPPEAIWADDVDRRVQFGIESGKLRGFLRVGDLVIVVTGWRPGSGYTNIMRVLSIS
# Procedure Text: Biochemical assay for activation of pyruvate kinase R (Kinase-Glo luminescence, ATP generation)
# Measurement Setup: 0.1 nM PKR, 2 mM FBP, 0.3 mM ADP, 0.1 mM PEP
Quantity Kind: AC50 (nM)
The response must be a number in nM with no trailing unit.

Reference set, count: 3
[[record]]
compound = "O=C([C@H](CO)c1ccccc1)N1Cc2cn(S(=O)(=O)c3cnc4c(c3)OCCO4)nc2C1"
reading = 6.9

[[record]]
compound = "N[C@@H](C(=O)N1Cc2cn(S(=O)(=O)c3ccc(OC(F)F)cc3)nc2C1)c1cccc(Cl)c1"
reading = 71

[[record]]
compound = "C[C@@H](O)[C@H](C(=O)N1Cc2cn(S(=O)(=O)c3ccc(OC(F)F)cc3)nc2C1)c1ccccc1 [Compound 9]"
reading = 147


--- query ---
QUERY: May I ask what AC50 has been recorded for O=C([C@@H](CO)c1ccccc1)N1Cc2cn(S(=O)(=O)c3ccc4c(c3)NCCO4)nc2C1 (single isomer, unassigned) ?
RESULT: 50

====

# Study System: Human pyruvate kinase R (PKR) (Homo sapiens, UniProt P30613)
# Construct: Human pyruvate kinase R (PKR), residues 14-574; 6x-His (N, cleaved yes); 8x-Arg (N, cleaved yes); SUMO (N, cleaved yes); host or cells: E. coli
# Procedure Text: Biochemical assay for activation of pyruvate kinase R (Kinase-Glo luminescence, ATP generation)
# Measurement Setup: 0.1 nM PKR, 2 mM FBP, 0.3 mM ADP, 0.1 mM PEP
Examples of compounds with documented AC50 follow.

Reference set, count: 10
[[record]]
compound = "CC(C)(O)[C@@H](C(=O)N1Cc2cn(S(=O)(=O)c3ccc4occc4c3)nc2C1)c1ccccc1"
reading = "210 nM"

[[record]]
compound = "C[C@@H](O)[C@H](C(=O)N1Cc2cn(S(=O)(=O)c3ccc(OC(F)F)cc3)nc2C1)c1ccccc1 [Compound 10]"
reading = "455 nM"

[[record]]
compound = "Cc1ncccc1[C@@H](N)C(=O)N1Cc2cn(S(=O)(=O)c3ccc4ncsc4c3)nc2C1 (single isomer, unassigned) [Compound 55]"
reading = "> 10000 nM"

[[record]]
compound = "Cn1ncc2ccc(S(=O)(=O)n3cc4c(n3)CN(C(=O)[C@H](CO)c3ccccc3)C4)cc21"
reading = "430 nM"

[[record]]
compound = "O=C([C@H](CO)c1ccccc1)N1Cc2cn(S(=O)(=O)c3ccc(OC4CC4)nc3)nc2C1"
reading = "> 10000 nM"

[[record]]
compound = "C[C@@H](O)[C@@H](C(=O)N1Cc2cn(S(=O)(=O)c3ccc(OC(F)F)cc3)nc2C1)c1ccccc1Cl (single isomer, unassigned) [Compound 66]"
reading = "13 nM"

[[record]]
compound = "O=C1CN([C@@H](C(=O)N2Cc3cn(S(=O)(=O)c4ccc(OC(F)F)cc4)nc3C2)c2ccccc2)C1 (single isomer, unassigned) [Compound 92]"
reading = "800 nM"

[[record]]
compound = "N[C@@H](C(=O)N1Cc2cn(S(=O)(=O)c3ccc4ncsc4c3)nc2C1)c1cccc(F)c1"
reading = "38 nM"

[[record]]
compound = "COc1ccc(S(=O)(=O)n2cc3c(n2)CN(C(=O)[C@H](CO)c2ccccc2)C3)cn1"
reading = "8.3 nM"

[[record]]
compound = "CN1Cc2cc(S(=O)(=O)n3cc4c(n3)CN(C(=O)[C@H](CO)c3ccccc3)C4)ccc2OC1=O"
reading = "53 nM"


QUERY: May I ask what AC50 has been recorded for N[C@@H](C(=O)N1Cc2cn(S(=O)(=O)c3ccc4ncsc4c3)nc2C1)c1ccccc1F ?
RESULT: 24 nM

QUERY: May I ask what AC50 has been recorded for O=C([C@H](CO)c1ccccc1F)N1Cc2cn(S(=O)(=O)c3ccc4occc4c3)nc2C1 ?
RESULT: 4.5 nM

QUERY: May I ask what AC50 has been recorded for O=C([C@@H](c1ccccc1)N1CCC1=O)N1Cc2cn(S(=O)(=O)c3ccc(OC(F)F)cc3)nc2C1 (single isomer, unassigned) [Compound 99] ?
RESULT: 190 nM

QUERY: May I ask what AC50 has been recorded for N[C@@H](C(=O)N1Cc2cn(S(=O)(=O)c3ccc4ncsc4c3)nc2C1)c1ccccc1Cl [Compound 52] ?
RESULT: 13 nM

The reported numbers originate from patent US20230159538A1.
